As shown below, each of these compounds has a reported CC50 value.
experiment: Lymphocyte viability (CCK-8); assay type: cell-based, mouse; details: mouse, lymphocytes; lymphocyte viability; CCK-8

For reference, reported CC50 for CCC1=Cc2c(occ(COC)c2=O)CC1 [Compound 10] stands at > 20 µM

====

tested on: LPS-induced B lymphocytes; assay: Anti-proliferative activity against LPS-induced B lymphocytes (CCK-8); type: cell-based, mouse; details: Mus musculus, Lymphocyte; induced proliferation of B lymphocytes (LPS); CCK-8; read-out: B cells IC50
measureName: IC50 (µM)
Report the value in µM with no unit label.

# count of solved cases: 2
molecule	studySystem	measureName	measuredResult
CCc1ccc2occ(COC)c(=O)c2c1 [Compound 11]	LPS-induced B lymphocytes	IC50	20
CC(C)C(C)C(OC1OC(CO)C(O)C(O)C1O)C(O)C(C)C1CCC2=C3C=CC4=CC(=O)CCC4(C)C3CCC21C (stereo not drawn) [Compound 41]	LPS-induced B lymphocytes	IC50	16.7

Param item: c1ccc2c3c([nH]c2c1)CNCC3 [Compound 36, tryptoline] ; param system: LPS-induced B lymphocytes; output IC50: 16.7

Param item: CCC1=Cc2c(occ(COC)c2=O)CC1 [Compound 10] ; param system: LPS-induced B lymphocytes; output IC50: 8

Param item: C[C@@H]1C[C@H]2[C@@H]3CCC4=CC(=O)C=C[C@]4(C)[C@@]3(F)[C@@H](O)C[C@]2(C)[C@@]1(O)C(=O)CO [Dex, dexamethasone, reference compound] ; param system: LPS-induced B lymphocytes; output IC50: 1

====

system: lymphocytes; assay: Lymphocyte viability (CCK-8); assay type: cell-based, mouse; conditions: c = 20 μM
As shown below, each of these compounds has a reported Cell validity (%) value.
Report the value in % with no unit label.

# count of solved cases: 5
compound	measureName	readoutUnit	measuredResult
CC12CCOC(C1)C1=C(CCC3C(C)(C(=O)O)CCCC13C)C2 (stereo not drawn)	Cell validity (%)	%	86.3
C[C@]1(CCO[C@H]2O[C@H](CO)[C@@H](O)[C@H](O)[C@@H]2O)CC[C@H]2C(=CC[C@@H]3[C@]2(C)CCC[C@]3(C)C(=O)O)C1	Cell validity (%)	%	101.8
C[C@]1(CCO[C@H]2O[C@H](CO)[C@@H](O)[C@H](O)[C@H]2O)CC[C@H]2C(=CC[C@@H]3[C@]2(C)CCC[C@]3(C)C(=O)O)C1	Cell validity (%)	%	94.0
C[C@]1(CCO[C@H]2O[C@H](CO)[C@@H](O)[C@H](O)[C@@H]2O)CCC2=C(CC[C@H]3[C@@](C)(C(=O)O)CCC[C@]23C)C1	Cell validity (%)	%	100.0
C[C@]1(CCO)CC[C@H]2C(=CC[C@@H]3[C@]2(C)CCC[C@]3(C)C(=O)O)C1 [Compound 15, 16-hydroxyisopimar-7-en-19-oic acid]	Cell validity (%)	%	89.9

For reference, reported Cell validity (%) for `C[C@]1(CCO[C@H]2O[C@H](CO)[C@@H](O)[C@H](O)[C@H]2O)CCC2=C(CC[C@H]3[C@@](C)(C(=O)O)CCC[C@]23C)C1` stands at 87.7

====

test system: ConA-induced T lymphocytes; assay: Anti-proliferative activity against ConA-induced T lymphocytes (CCK-8); assay type: cell-based; details: Mus musculus, T-lymphocyte, c = 40 μM, read-out: Inhibition rate (%) T
Classification field: yes (1) = inhibition at 40 µM at or over 30%; no (0) = inhibition at 40 µM under 30%.

Known results for compounds:
compound	class
CC12CCOC(C1)C1=C(CCC3C(C)(C(=O)O)CCCC13C)C2 (stereo not drawn)	no (0)
C[C@]1(CCO)CC[C@H]2C(=CC[C@@H]3[C@]2(C)CCC[C@]3(C)C(=O)O)C1 [Compound 15, 16-hydroxyisopimar-7-en-19-oic acid]	no (0)
C[C@]1(CCO[C@H]2O[C@H](CO)[C@@H](O)[C@H](O)[C@H]2O)CCC2=C(CC[C@H]3[C@@](C)(C(=O)O)CCC[C@]23C)C1	no (0)

Hi team, for `C[C@]1(CCO[C@H]2O[C@H](CO)[C@@H](O)[C@H](O)[C@@H]2O)CCC2=C(CC[C@H]3[C@@](C)(C(=O)O)CCC[C@]23C)C1` , is the recorded inhibition at 40 µM at or above 30%?
yes (1)

Hi team, for `C[C@]1(CCO[C@H]2O[C@H](CO)[C@@H](O)[C@H](O)[C@@H]2O)CC[C@H]2C(=CC[C@@H]3[C@]2(C)CCC[C@]3(C)C(=O)O)C1` , is the recorded inhibition at 40 µM at or above 30%?
no (0)

Hi team, for `C[C@]1(CCO[C@H]2O[C@H](CO)[C@@H](O)[C@H](O)[C@H]2O)CC[C@H]2C(=CC[C@@H]3[C@]2(C)CCC[C@]3(C)C(=O)O)C1` , is the recorded inhibition at 40 µM at or above 30%?
no (0)
